Target: METTL3/14 (Homo sapiens, UniProt Q86U44)
Sequence (Q86U44 whole entry): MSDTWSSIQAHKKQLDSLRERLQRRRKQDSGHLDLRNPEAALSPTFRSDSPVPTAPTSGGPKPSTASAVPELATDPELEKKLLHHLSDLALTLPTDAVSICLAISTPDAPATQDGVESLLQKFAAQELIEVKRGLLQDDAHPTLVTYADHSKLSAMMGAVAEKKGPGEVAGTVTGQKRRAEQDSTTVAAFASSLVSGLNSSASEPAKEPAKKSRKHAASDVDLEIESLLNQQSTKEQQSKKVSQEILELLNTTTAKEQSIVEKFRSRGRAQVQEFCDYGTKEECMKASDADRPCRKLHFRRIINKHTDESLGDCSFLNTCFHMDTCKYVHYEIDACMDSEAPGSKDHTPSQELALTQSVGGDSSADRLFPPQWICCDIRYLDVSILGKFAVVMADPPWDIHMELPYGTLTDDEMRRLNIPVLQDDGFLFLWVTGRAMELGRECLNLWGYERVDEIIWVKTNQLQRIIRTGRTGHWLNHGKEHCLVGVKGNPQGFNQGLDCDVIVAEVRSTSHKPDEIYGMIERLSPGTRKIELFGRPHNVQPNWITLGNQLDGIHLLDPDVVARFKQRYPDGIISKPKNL
Sequence (Q9HCE5 whole entry partner): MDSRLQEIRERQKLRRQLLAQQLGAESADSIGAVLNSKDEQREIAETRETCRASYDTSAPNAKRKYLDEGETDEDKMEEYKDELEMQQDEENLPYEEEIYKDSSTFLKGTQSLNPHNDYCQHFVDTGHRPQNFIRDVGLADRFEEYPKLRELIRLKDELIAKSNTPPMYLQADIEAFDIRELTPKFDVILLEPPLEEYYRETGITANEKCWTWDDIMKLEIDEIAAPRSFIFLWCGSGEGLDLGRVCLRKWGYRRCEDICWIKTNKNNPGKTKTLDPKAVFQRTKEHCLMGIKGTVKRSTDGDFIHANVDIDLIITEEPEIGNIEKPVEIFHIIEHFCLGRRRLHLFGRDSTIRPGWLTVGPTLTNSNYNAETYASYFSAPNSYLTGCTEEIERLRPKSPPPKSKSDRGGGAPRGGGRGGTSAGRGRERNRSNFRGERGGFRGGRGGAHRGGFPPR
Assay: METTL3/14 methyltransferase activity assay (HTRF)
Conditions: 10 concentrations, 3-fold dilution from 10 µM
measurement type: IC50

Check out these entries, answers already filled in.
Per the record, O=C(NCc1ccc2cc(CNCC3(C(F)(F)F)CC3)[nH]c2c1)c1cc(=O)n2cc3c(cc2n1)OCO3 has IC50 of 10 to 100 nM

Per the record, CC1(CNCc2cc3ccc(CNC(=O)c4cc(=O)n5cc6c(cc5n4)OCCO6)cc3[nH]2)CC(F)(F)C1 has IC50 of < 10 nM

Continuing:
Per the record, O=C(NCc1ccc2cc(CNCC3CCC3)[nH]c2c1)c1ccn(Cc2ccccc2)c(=O)c1 has IC50 of 10 to 100 nM

Per the record, [2H]C([2H])(NCc1cc2ccc(CNC(=O)c3cc(=O)n4cc5c(cc4n3)OCCO5)cc2[nH]1)C12CC(F)(C1)C2 has IC50 of < 10 nM

Per the record, O=C(NCc1cc2[nH]c(CNCC34CC(CO3)C4)cc2cc1F)c1cc(=O)n2cc3c(cc2n1)OCO3 has IC50 of 10 to 100 nM
